Cited source: paper PMC10428001

So I've got a bunch of compounds here, and I need their IC50 values.
test system: Ba/F3 cells HER2 V862I; assay: Ba/F3 cell viability; type: cell-based; details: read-out: IC50 (average ± SD); Ba/F3 HER2 V862I, 3 days
Give bare numbers, in nM.

| compound | data value |
| --- | --- |
| C=CC(=O)N1CCC[C@@H](n2nc(C(=O)Nc3ccc(CC(=O)N(C)C)c(C)c3C)c3c(N)ncnc32)C1 [TAS0728] | 1320 |

As a next step, examine the compound that follows.
Inquiry: Request the reported IC50 associated with CCOc1cc2ncc(C#N)c(Nc3ccc(Oc4ccn5ncnc5c4)c(C)c3)c2cc1NC(=O)/C=C/CN(C)C [JBJ-08-178-01]
Reply text: 284
